test system: 786-0 renal; experiment: NCI tumour cell line growth inhibition, 48 h
Each item that follows carries a reported GI50.

{"MOLECULE": "Nc1ncnc2[nH]ncc12", "GI50": "0.623 µM"}
{"MOLECULE": "COC(=O)Cn1c2c(c3c(O)cccc31)C(=O)c1ccccc1-2", "GI50": "> 100 µM"}
{"MOLECULE": "N/C(=N\\N=C\\c1ccc(-c2ccccc2)cc1)N[N+](=O)[O-]", "GI50": "10.4 µM"}
{"MOLECULE": "COc1cc2c(c(OC)c1OC)-c1ncc3cc(OC)c(OC)c(OC)c3c1C2", "GI50": "35.9 µM"}
{"MOLECULE": "COc1ccc(-c2cc(-c3ccccc3)nc(SCCCC(=O)NO)n2)cc1", "GI50": "0.573 µM"}
{"MOLECULE": "N#Cc1c(N/N=C/c2c(Cl)cccc2Cl)nc(N)nc1N1CCOCC1", "GI50": "5.82 µM"}
{"MOLECULE": "CC(C)(C)c1ccc(OCCCCCCN2CCNCC2)cc1", "GI50": "3.34 µM"}
{"MOLECULE": "O=C1c2ccccc2-c2c1c1ccc([N+](=O)[O-])cc1c(=O)n2CCCBr", "GI50": "> 100 µM"}
{"MOLECULE": "CS(=O)(=O)c1ccc(C(=O)Nc2ccc(Cl)c(-c3ccccn3)c2)c(Cl)c1", "GI50": "63.2 µM"}
{"MOLECULE": "CC(CN1CCN(CCOCCO)CC1)CN1c2ccccc2Sc2ccc(Cl)cc21 (stereo not drawn)", "GI50": "4.79 µM"}
{"MOLECULE": "O=C(c1ccccc1)C(CN1CCOCC1)c1ccccc1 (stereo not drawn)", "GI50": "2.72 µM"}
{"MOLECULE": "O=C(/C(=C/c1ccccc1)CN1CCCCC1)c1ccccc1", "GI50": "1.79 µM"}
{"MOLECULE": "COc1cc2c(cc1OCCCCOc1cc3c(cc1OC)C(=O)N1CCC[C@H]1CN3)N=C[C@@H]1CCCN1C2=O", "GI50": "2.94 µM"}

====

tested on: NCI/ADR-RES ovarian; test: NCI tumour cell line growth inhibition, 48 h

{"COMPOUND": "C/C(=N\\Nc1ccc2ccccc2n1)c1ccccn1", "TGI": "7.19 µM"}
{"COMPOUND": "C=Cc1c(C)c(OC)cc2c1Oc1ccc(OC)c(C)c1CC2", "TGI": "> 100 µM"}
{"COMPOUND": "O=C(NNC1=NCCN1)c1ccco1", "TGI": "> 100 µM"}
{"COMPOUND": "O=C(O)C/C=C/CC(=O)O", "TGI": "> 100 µM"}
{"COMPOUND": "COC(=O)C1CC2(CCC1=O)Cc1ccccc1C2=O (configuration not stated)", "TGI": "> 100 µM"}
{"COMPOUND": "O=c1cc(-c2cccc(Cl)c2)[nH]c2ncccc12", "TGI": "> 100 µM"}
{"COMPOUND": "CCCCCCNC(=O)c1cnc(Cl)cn1", "TGI": "34.2 µM"}

====

tested on: OVCAR-5 ovarian; experiment: NCI tumour cell line growth inhibition, 48 h
Each item that follows carries a reported TGI.
MEASURED_PROPERTY: TGI

{"MOLECULE": "CC(C)CC(CC1=CCC2CC1C2(C)C)C1=C(O)C(C)(C)C(=O)C(C)(C)C1=O (stereo not drawn)", "VAL": "> 100 µM"}
{"MOLECULE": "O=C(NCc1cccnc1)NCc1cccnc1", "VAL": "> 100 µM"}
{"MOLECULE": "O=c1cc(-c2cccc(Cl)c2)[nH]c2ncccc12", "VAL": "> 100 µM"}
{"MOLECULE": "CC1=C(N2CC2)C(=O)c2nc3n(c2C1=O)CCC3OC(=O)CCl (stereo not drawn)", "VAL": "0.263 µM"}
{"MOLECULE": "CCN(C(=O)N1CCN(c2cc3c(cc2F)c(=O)c(C(=O)O)cn3C2CC2)CC1)c1nc(-c2ccc(C)cc2)cs1", "VAL": "> 100 µM"}
{"MOLECULE": "CC12CCC(C(=O)OC1=O)C(C)(C)O2 (stereo not drawn)", "VAL": "> 100 µM"}
{"MOLECULE": "CC(C)(C)c1ccc(OCCCCCCN2CCNCC2)cc1", "VAL": "29.4 µM"}
{"MOLECULE": "O=C(N/N=C/c1ccc2c(c1)CCC2)c1ccccc1O", "VAL": "> 100 µM"}
{"MOLECULE": "O=C(NN1C(=O)CSC12CCCCC2)c1[nH]c2ccc(F)cc2c1-c1ccccc1", "VAL": "> 100 µM"}
{"MOLECULE": "CCCn1c(C)nc2c1C(=O)c1ccccc1C2=O", "VAL": "> 100 µM"}
{"MOLECULE": "C=Cc1c(C)c(OC)cc2c1Oc1ccc(OC)c(C)c1CC2", "VAL": "> 100 µM"}
{"MOLECULE": "CCCCCCCCCCCC(=O)OCCOCCOCCOCCOCCOCc1ccc(OC)cc1", "VAL": "> 100 µM"}
{"MOLECULE": "CN(C)CCCNc1ccc2ncn3c4ccccc4c(=O)c1c23", "VAL": "38.5 µM"}
{"MOLECULE": "Cc1n[nH]c(=O)c2cc(-c3ccccc3)[nH]c12", "VAL": "> 100 µM"}
{"MOLECULE": "N#Cc1c(N/N=C/c2c(Cl)cccc2Cl)nc(N)nc1N1CCOCC1", "VAL": "> 100 µM"}
{"MOLECULE": "CN(C)CCNC(=O)c1cccc2c(NCC(=O)O)c3ccccc3nc12", "VAL": "> 100 µM"}
{"MOLECULE": "CN(C)CCCN1c2ccccc2CCc2ccc(Cl)cc21", "VAL": "16.2 µM"}
{"MOLECULE": "COC(=O)[C@@H]1CN(C(=O)CCc2ccccc2)C(=O)N1C(=O)OCc1ccccc1", "VAL": "> 100 µM"}
{"MOLECULE": "CC(=O)OC1CCn2nnc(CO[Si](C)(C)C(C)(C)C)c21 (stereo not drawn)", "VAL": "> 100 µM"}
{"MOLECULE": "Cc1cc(N/N=C/c2nc(-c3ccc(Br)cc3)oc2C)c2cc(Cl)ccc2n1", "VAL": "> 100 µM"}
{"MOLECULE": "CC1=C2C(=O)c3ccccc3C(=O)[C@H]2[C@H]2CCO[C@H]2O1", "VAL": "49.2 µM"}
{"MOLECULE": "O=C(CN1CCNCCN(CC(=O)N2CCCCC2)CCNCC1)N1CCCCC1", "VAL": "> 100 µM"}
{"MOLECULE": "N#CC(C#N)=Cc1ccc2c(c1)OC(Cl)O2 (stereo not drawn)", "VAL": "37.1 µM"}
